The entries below are paired with their reported activation at 1 µM.
Molecular target: glucocerebrosidase (Gcase) (Homo sapiens)
Construct: 100 μL of micellar solution containing 10 nM GCase and 100 nM saposin C (Enzo ALX-201-262-C050)
Sequence (P04062 40-536): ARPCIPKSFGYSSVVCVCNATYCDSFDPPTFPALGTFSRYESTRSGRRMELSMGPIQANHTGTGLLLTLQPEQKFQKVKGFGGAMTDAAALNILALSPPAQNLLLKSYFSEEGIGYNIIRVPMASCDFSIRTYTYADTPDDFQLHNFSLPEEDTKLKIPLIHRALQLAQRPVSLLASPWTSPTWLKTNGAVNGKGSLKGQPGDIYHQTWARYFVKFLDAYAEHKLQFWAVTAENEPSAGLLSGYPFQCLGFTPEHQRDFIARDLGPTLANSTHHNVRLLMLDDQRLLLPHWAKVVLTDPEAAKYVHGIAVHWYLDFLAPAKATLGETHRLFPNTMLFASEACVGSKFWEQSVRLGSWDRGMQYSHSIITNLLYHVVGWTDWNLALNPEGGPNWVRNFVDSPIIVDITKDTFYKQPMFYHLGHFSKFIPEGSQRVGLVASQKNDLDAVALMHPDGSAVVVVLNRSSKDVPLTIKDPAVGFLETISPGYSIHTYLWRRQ
Test: Glucocerebrosidase (Gcase) activation assay, 4-methylumbelliferyl-beta-D-glucopyranoside substrate, with saposin C
Format: biochemical
Conditions: 0.25 h; 1 μM test compound; 10 nM GCase, 100 nM saposin C, pH 4.7; read-out: Percent Gcase Activation, 1 μM Test Compound

Examples from the recorded data:
O=C(Nc1ccc2c(c1)OCCO2)c1cnc2occn2c1=O    < 5%
O=C(NC1CCCc2ccccc21)c1cnc2occn2c1=O (centres unmarked)    > 10%
C[C@@H](NC(=O)c1cnc2occn2c1=O)c1ccccc1    < 5%
CCc1ccc(NC(=O)c2cnc3occn3c2=O)cc1    5 to 10%
O=C(NC1CCc2ccccc2C1)c1cnc2occn2c1=O (centres unmarked)    < 5%

Exercise: Request: activation at 1 µM, test system glucocerebrosidase (Gcase) (Homo sapiens), entry C#Cc1ccc(NC(=O)c2cnc3occn3c2=O)cc1
Solution: 5 to 10%

Exercise: For the record CCN1CCN(c2ccc(NC(=O)c3cnc4occn4c3=O)cc2)CC1 , what value of activation at 1 µM is listed for glucocerebrosidase (Gcase) (Homo sapiens)?
Solution: < 5%

Exercise: Under glucocerebrosidase (Gcase) (Homo sapiens): activation at 1 µM value of CCC(C)c1ccc(NC(=O)c2cnc3occn3c2=O)cc1 (centres unmarked) ?
Solution: > 10%

Exercise: What value of activation at 1 µM on glucocerebrosidase (Gcase) (Homo sapiens) does CCC(C)c1ccc(NC(=O)c2cnc3[nH]ccn3c2=O)cc1 (centres unmarked) have?
Solution: 5 to 10%

Exercise: Identify the measured activation at 1 µM of O=C(NC1CCC(c2ccccc2)CC1)c1cnc2occn2c1=O (centres unmarked) for glucocerebrosidase (Gcase) (Homo sapiens).
Solution: > 10%

Exercise: # query: activation at 1 µM | item CCC(C)c1ccc(NC(=O)c2cnc3n(C)ccn3c2=O)cc1 (centres unmarked) | system: glucocerebrosidase (Gcase) (Homo sapiens)
Solution: > 10%

Exercise: Recall the recorded activation at 1 µM for O=C(NC1CCc2ccccc21)c1cnc2occn2c1=O (centres unmarked) with glucocerebrosidase (Gcase) (Homo sapiens) and state it.
Solution: 5 to 10%

Exercise: GET /values?readout=activation at 1 µM&system=glucocerebrosidase (Gcase) (Homo sapiens)&item= O=C(Nc1ccc(N2CCCCC2)cc1)c1cnc2occn2c1=O
Solution: < 5%

Exercise: # value lookup — system glucocerebrosidase (Gcase) (Homo sapiens), readout activation at 1 µM, item CN1Cc2ccc(NC(=O)c3cnc4occn4c3=O)cc2C1
Solution: 5 to 10%
